Hey, just so you know, these numbers are from the RNAGym collection of RNA variant scans (doi:10.7554/elife.90254).

B1: OR4K15 (parent)
chain: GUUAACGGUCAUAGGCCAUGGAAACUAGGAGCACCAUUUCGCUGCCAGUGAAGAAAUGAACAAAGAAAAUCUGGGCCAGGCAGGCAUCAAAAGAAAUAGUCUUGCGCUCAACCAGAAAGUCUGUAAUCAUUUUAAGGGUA

Variants of: B1
PROCEDURE_TEXT: self-cleavage, relative activity (ratio to wild type); higher = more cleavage; in vitro, sequencing; the parent is a self-cleaving ribozyme
Answer each item with its documented self-cleavage.

Using the record for C34U A69U , state its measured self-cleavage.
2.37

Quickly give me recorded self-cleavage for A11G A94G
0.95

Please give the documented self-cleavage of A18G A117U
1.01

Please indicate self-cleavage recorded for A114U A117G
0.04

Provide measured self-cleavage value, entry: A23U A96G
1.59

Return the recorded self-cleavage value; entry: U2A U139G
0.81

# return recorded self-cleavage for input A60C U72A
0.21

Please list self-cleavage recorded for the variant A66G A91G
1.04

Item G44C A78G : provide self-cleavage
0.52

Using known records, supply self-cleavage for A33G A60G
0.98

For the variant A96G A110G , give its reported self-cleavage.
0.12

Name the recorded self-cleavage of the item G65C A89U in your answer.
2.04

Recall and state the measured self-cleavage for A95G U131C .
1.46

Report self-cleavage for G7U A90G
2.21

Give self-cleavage for A86U U122C
1.74

Dear colleague, please send me the reported self-cleavage for U12A A90G when you can.
0.57

Return reported self-cleavage. Input variant: A52C A117G
1.22

Give self-cleavage for U39G A92G
1.57

Read off the recorded self-cleavage for A78U U108A
0.01

For A95G G123A , write its self-cleavage.
1.22

Tell us which self-cleavage value is on record for C10A G20A
0.86

Return reported self-cleavage. Input variant: A59G A62U
1.32

Name the recorded self-cleavage of the item U39C A117U in your answer.
1.08

Answer with the recorded self-cleavage for the variant listed here: A13G C32U
1.2

State its self-cleavage: C16A A18G
1.18

Look up and report measured self-cleavage for this entry: A114G U131C
0.15

Please indicate self-cleavage recorded for A51U G137A
1.43

Identify self-cleavage associated with the variant C61U
1.8

Answer with the recorded self-cleavage for the variant listed here: A62G A67U
1.82

Specify self-cleavage for G7U A135U and stop.
2.23

// fetch self-cleavage given entry A11G A94U
1.2

Note self-cleavage for the variant shown: A27G G53C
1.59

For A94G A98U , write its self-cleavage.
2.36

Read the entry A30G A114C and write its reported self-cleavage.
0.07

Provide measured self-cleavage value, entry: U9A U37C
1.63

Look up self-cleavage of A82G A134G and report it.
0.54

Complete the entry with self-cleavage for A11U A55G
0.82

Return self-cleavage for the following variant: C71A A78U
0.26

Give the reported self-cleavage for this variant. U57C G73A
0.15

Provide measured self-cleavage value, entry: A67C A110G
0.37

Specify reported self-cleavage for the variant shown: A24G C81G
0.21

Find the measured self-cleavage of A11G U87A and report it.
1.05

State, in one line, measured self-cleavage of A94G A114C
0.05

Give me measured self-cleavage, please, for this variant: A36G G104A
0.07

Note down self-cleavage recorded for A59G U133C
1.79

Look up self-cleavage of A11U G29A and report it.
0.94

State its self-cleavage for this variant: G14C A118U
0.78

Please indicate self-cleavage recorded for A52G A89U
1.7

Retrieve self-cleavage measured for C6U U57A and print it.
0.77

Output measured self-cleavage for this item: U38C U130C
1.5

Answer with the recorded self-cleavage for the variant listed here: C34U A52G
0.85

Tell us which self-cleavage value is on record for A110G A114C
0.01

Provide self-cleavage value for the following variant: U72C A95G
0.35

Could you please provide reported self-cleavage for A59G U97C ? Thanks!
0.82

Report self-cleavage for A62G A91G
1.12

State, in one line, measured self-cleavage of A114G A116U
0.05

Look up and state reported self-cleavage for G7A A56G
1.78

For the variant A52U A67G , give its measured self-cleavage value.
0.87

Tell me self-cleavage reported for A69G A94U
1.45

Please supply the value of reported self-cleavage for the item A30C A111G
0.07

Let me know recorded self-cleavage for A5G U97C , thanks.
1.25

Identify measured self-cleavage associated with A82C A98G
0.09

State its self-cleavage for this variant: A69U U102C
2.2

Fill in self-cleavage for record U37C A64G
1.54

Give the measured self-cleavage for G74C A110U
0.14

Please indicate self-cleavage recorded for A63G A95G
2.26

Retrieve self-cleavage measured for A24G U139G and print it.
1.86

Answer with the recorded self-cleavage for the variant listed here: A13G A86U
1.21

Give the measured self-cleavage for A11U U124C
1.14

Using the record for U19A A116C , state its measured self-cleavage.
0.09

Supply self-cleavage value. Item: A68G G79U
0.07

Given the variant A33U A90G , write its reported self-cleavage.
1.06

Provide measured self-cleavage value, entry: A116C U130C
0.06

Please give measured self-cleavage of the following entry: A64U A134G
1.44

Input A5G U132C , output reported self-cleavage.
0.89

State its self-cleavage for this variant: C32G A96U
1.87
